Biological target: human FGF receptor-1 (Homo sapiens)
Sequence (P11362 22-822): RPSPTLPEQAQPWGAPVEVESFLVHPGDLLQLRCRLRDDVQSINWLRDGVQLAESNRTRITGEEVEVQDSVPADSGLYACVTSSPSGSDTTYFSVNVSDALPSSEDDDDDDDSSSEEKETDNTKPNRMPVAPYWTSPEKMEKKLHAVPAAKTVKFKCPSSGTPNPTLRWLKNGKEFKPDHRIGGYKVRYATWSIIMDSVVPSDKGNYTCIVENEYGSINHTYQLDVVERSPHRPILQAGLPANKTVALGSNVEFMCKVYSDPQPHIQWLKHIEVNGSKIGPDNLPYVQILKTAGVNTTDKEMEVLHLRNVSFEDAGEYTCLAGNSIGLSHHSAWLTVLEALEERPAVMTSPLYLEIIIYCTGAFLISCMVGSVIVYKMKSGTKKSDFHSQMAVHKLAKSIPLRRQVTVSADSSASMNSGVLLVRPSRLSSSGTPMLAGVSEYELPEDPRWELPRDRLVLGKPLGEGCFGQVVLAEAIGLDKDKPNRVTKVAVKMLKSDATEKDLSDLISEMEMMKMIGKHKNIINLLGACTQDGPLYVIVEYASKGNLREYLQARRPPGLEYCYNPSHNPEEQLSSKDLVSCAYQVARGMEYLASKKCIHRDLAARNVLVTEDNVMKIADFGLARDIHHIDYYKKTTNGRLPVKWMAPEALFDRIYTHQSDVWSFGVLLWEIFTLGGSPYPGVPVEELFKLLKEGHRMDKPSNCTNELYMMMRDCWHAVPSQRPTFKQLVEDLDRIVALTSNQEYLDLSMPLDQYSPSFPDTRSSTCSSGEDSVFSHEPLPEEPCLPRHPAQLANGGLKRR
Test: FGF receptor-1 autophosphorylation in CHO cells
Settings: Table 2, inhibition of protein kinase activity
pIC50: −log10 of the molar value.
measurement.kind: pIC50

>>> print(df.to_string())
                                   molecule  measurement_kind  test_value
0  COc1cc(O)c2c(c1)/C=C/C[C@H](O)[C@H](O)C(=O)/C=C\C[C@H](C)OC2=O [Compound 292]             pIC50      < 4.52

###

Test system: HS27
Test: cell proliferation under normal tissue culture conditions, HS27
Assay type: cell-based
Conditions: Homo sapiens, HS27; Table 3, 96 hours, 10% fetal bovine serum; read-out: IC50 HS27
measurement.kind: IC50

In [3]: df
Out[3]:
                                   molecule  measurement_kind  test_value
0  COc1cc(O)c2c(c1)/C=C/C[C@H](O)[C@H](O)C(=O)/C=C\C[C@H](C)OC2=O [Compound 292]              IC50     > 30 µM

###

Molecular target: recombinant c-src (Homo sapiens, UniProt P12931)
Sequence (P12931 whole entry): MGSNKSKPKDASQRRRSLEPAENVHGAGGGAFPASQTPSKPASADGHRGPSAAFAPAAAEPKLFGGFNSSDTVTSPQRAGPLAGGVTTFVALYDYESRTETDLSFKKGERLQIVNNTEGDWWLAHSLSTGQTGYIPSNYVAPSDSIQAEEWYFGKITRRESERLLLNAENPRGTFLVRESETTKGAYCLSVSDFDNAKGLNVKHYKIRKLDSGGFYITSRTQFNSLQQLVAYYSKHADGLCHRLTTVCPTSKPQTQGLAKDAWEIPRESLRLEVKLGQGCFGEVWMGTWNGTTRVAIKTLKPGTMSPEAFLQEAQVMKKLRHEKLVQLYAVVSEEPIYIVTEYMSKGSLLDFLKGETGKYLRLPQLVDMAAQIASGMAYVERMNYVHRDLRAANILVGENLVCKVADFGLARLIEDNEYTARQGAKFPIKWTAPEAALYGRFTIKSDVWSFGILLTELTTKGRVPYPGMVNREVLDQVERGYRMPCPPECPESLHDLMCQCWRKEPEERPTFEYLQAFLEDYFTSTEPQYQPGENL
Assay: recombinant c-src kinase microtiter plate assay
pIC50: −log10 of the molar value.
measurement.kind: pIC50

>>> df
                                   molecule                           measured_target  measurement_kind  test_value
0  COC(=O)[C@@]1(O)C[C@H]2O[C@]1(C)n1c3ccccc3c3c4c(c5c6ccccc6n2c5c31)C(=O)NC4 [Compound K252a, K252a, reference compound]  recombinant c-src (Homo sapiens, UniProt P12931)             pIC50        7.70

###

Target: Protein Kinase A (PKA) (Homo sapiens)
Assay: Protein Kinase A non-radioactive kinase assay (UBI)
Conditions: IC50 PKA, Table 2, inhibition of protein kinase activity
pIC50: −log10 of the molar value.
measurement.kind: pIC50

>>> df
                                   compound  test_value
0  COC(=O)[C@@]1(O)C[C@H]2O[C@]1(C)n1c3ccccc3c3c4c(c5c6ccccc6n2c5c31)C(=O)NC4 [Compound K252a, K252a, reference compound]        7.15

###

Molecular target: human beta PDGFR (Homo sapiens, UniProt P09619)
Sequence (P09619 33-1106): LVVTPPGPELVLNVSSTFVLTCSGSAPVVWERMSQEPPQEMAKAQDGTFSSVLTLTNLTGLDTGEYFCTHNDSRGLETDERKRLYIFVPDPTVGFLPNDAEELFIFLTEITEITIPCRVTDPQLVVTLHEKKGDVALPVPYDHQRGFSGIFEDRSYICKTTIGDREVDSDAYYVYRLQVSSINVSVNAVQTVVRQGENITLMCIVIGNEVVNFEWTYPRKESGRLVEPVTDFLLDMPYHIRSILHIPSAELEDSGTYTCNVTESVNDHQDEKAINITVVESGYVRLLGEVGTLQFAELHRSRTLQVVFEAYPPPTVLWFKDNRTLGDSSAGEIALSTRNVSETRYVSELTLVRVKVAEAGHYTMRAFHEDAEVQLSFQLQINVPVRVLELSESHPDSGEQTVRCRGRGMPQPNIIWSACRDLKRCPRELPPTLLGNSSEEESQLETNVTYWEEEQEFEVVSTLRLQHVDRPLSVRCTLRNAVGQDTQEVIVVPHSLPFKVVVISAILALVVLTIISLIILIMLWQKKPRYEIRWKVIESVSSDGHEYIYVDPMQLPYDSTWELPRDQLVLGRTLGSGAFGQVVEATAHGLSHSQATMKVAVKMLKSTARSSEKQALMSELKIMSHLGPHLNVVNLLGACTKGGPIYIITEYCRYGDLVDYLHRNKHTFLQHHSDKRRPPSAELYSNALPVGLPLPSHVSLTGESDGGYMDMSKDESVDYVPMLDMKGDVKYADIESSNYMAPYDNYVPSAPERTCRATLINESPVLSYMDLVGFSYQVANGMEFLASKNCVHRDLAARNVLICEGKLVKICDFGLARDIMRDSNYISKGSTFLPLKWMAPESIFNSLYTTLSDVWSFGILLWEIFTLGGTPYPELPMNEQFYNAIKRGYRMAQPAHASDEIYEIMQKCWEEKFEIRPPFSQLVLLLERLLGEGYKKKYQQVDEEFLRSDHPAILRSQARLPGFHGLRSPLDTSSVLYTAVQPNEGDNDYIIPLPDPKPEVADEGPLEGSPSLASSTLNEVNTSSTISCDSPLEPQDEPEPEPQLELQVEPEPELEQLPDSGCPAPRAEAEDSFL
Assay: beta PDGF receptor autophosphorylation in HR5 cells
measurement.kind: IC50 (nM)

>>> df
                                   compound  test_value
0  COC(=O)[C@@]1(O)C[C@H]2O[C@]1(C)n1c3ccccc3c3c4c(c5c6ccccc6n2c5c31)C(=O)NC4 [Compound K252a, K252a, reference compound]         270

###

Molecular target: Protein Kinase A (PKA) (Homo sapiens, UniProt P17612)
Assay: Protein Kinase A non-radioactive kinase assay (UBI)
pIC50: −log10 of the molar value.
measurement.kind: pIC50

                                   compound                           measured_target  censoring_qualifier  test_value
0  COC(=O)[C@@]1(O)C[C@H]2O[C@]1(C)n1c3ccccc3c3c4c(c5c6ccccc6n2c5c31)C(=O)NC4 [Compound K252a, K252a, reference compound]  Protein Kinase A (PKA) (Homo sapiens, UniProt P17612)                    =        7.15
1  COc1cc(O)c2c(c1)/C=C/C[C@H](O)[C@H](O)C(=O)/C=C\C[C@H](C)OC2=O  Protein Kinase A (PKA) (Homo sapiens, UniProt P17612)                    <        4.40
